Target: human TRPA1 (Homo sapiens)
Construct: expressed in transfected cells; host or cells: CHO cells
Sequence (O75762 whole entry): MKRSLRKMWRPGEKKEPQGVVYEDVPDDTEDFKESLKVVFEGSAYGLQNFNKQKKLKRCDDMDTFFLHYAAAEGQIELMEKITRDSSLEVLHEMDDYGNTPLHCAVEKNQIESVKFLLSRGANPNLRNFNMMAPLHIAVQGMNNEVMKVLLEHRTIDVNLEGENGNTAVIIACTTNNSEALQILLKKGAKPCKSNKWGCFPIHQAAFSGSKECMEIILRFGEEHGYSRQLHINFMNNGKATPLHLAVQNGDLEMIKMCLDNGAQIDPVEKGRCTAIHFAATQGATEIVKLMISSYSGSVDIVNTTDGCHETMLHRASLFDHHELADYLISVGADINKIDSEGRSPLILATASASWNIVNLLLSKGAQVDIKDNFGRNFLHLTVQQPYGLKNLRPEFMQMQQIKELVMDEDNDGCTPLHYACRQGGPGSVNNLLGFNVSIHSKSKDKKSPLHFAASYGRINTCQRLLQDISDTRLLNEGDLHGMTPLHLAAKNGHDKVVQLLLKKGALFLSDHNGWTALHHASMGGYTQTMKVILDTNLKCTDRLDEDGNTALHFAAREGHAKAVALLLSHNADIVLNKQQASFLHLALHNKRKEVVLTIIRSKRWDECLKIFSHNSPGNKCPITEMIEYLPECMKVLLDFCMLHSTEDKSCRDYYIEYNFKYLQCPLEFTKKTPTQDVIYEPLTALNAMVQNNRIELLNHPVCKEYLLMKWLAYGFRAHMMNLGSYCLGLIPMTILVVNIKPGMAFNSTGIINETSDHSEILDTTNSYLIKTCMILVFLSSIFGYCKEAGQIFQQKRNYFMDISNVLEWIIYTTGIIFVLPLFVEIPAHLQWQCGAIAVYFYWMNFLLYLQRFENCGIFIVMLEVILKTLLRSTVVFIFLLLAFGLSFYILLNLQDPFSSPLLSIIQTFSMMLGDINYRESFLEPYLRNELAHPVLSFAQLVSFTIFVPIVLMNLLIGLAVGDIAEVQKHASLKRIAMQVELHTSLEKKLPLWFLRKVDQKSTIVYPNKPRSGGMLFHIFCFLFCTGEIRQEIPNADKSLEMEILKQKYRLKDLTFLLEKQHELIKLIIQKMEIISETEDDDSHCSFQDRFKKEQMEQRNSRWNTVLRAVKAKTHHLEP
Experiment: TRPA1 FLIPR Tetra calcium influx assay in CHO cells (block of cinnamaldehyde-induced calcium influx)
Assay type: cell-based
Details: Table 2; CHO cells expressing TRPA1; agonist cinnamaldehyde 75 uM; 20 min compound incubation; Hill coefficient fixed to 1.5; read-out: hTRPA1 CHO Ca2+ AUC EVO (IC50)
pIC50: −log10 of the molar value.
value-type: pIC50

Some molecules with recorded pIC50:
Task item: Please give the measured pIC50 for this molecule: C[C@H]1[C@H](F)C[C@@H](C(=O)NCc2cc(-c3cnc(C(F)(F)F)nc3)cnc2C2CC2)N1S(=O)(=O)c1ccc(F)cc1
Reply: 7.98

Task item: Please give the measured pIC50 for this molecule: CC(C)Oc1nc(CNC(=O)[C@@H]2C[C@@H](F)CN2S(=O)(=O)c2ccc(F)cc2)cc(-c2cnc(C(F)(F)F)nc2)n1
Reply: 7.08

Task item: Please give the measured pIC50 for this molecule: C[C@H]1[C@H](F)C[C@@H](C(=O)NCc2cc([C@H]3C[C@@H](OC(F)(F)F)C3)ncc2F)N1S(=O)(=O)c1ccc(F)cc1
Reply: 8.37

I = C[C@H]1[C@H](F)C[C@@H](C(=O)NCc2cc(-c3cnc(C(F)(F)F)nc3)nc(C(F)(F)F)n2)N1S(=O)(=O)c1ccc(F)cc1
II = C[C@H]1[C@H](F)C[C@@H](C(=O)NCc2cc(-c3cnc(C(F)(F)F)nc3)c(C(F)(F)F)cn2)N1S(=O)(=O)c1ccc(F)cc1
III = C[C@H]1[C@H](F)C[C@@H](C(=O)NCc2cnc(C(F)(F)F)c(-c3cnc(C(F)(F)F)nc3)c2)N1S(=O)(=O)c1ccc(F)cc1
Task item: Could you please order the items by pIC50, going from the lowest number to the highest? Lab note: final answer is the ordered label list.
Reply: III, II, I
